These entries and their values trace back to ChEMBL document CHEMBL1240531.

Target: Adenosine receptor A1 (Homo sapiens) (UniProt P30542)
Sequence (P30542 whole entry): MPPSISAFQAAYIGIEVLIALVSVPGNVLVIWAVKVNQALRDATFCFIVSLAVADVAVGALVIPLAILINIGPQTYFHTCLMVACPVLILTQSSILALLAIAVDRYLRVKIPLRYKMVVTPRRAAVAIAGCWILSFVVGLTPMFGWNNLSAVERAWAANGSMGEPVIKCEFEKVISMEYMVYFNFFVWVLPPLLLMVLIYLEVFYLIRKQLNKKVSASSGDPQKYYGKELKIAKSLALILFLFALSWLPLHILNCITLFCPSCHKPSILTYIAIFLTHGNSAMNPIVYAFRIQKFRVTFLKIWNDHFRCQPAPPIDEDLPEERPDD
Assay: Allosteric enhancement of human adenosine A1 receptor expressed in CHO FlpIn cells assessed as potentiation of N(6)-(R-phenylisopropyl)adenosine-induced ERK1/2 phosphorylation at 10 uM relative to N(6)-(R-phenylisopropyl)adenosine
Type: cell-based
# binarize Activity: threshold 9% inclusive, high side 1, low side 0

Threshold query (Activity >= 9%) on `Nc1sc(-c2ccccc2)c2c1C(=O)c1ccccc1-2`
0

Again, but for `Nc1sc(-c2ccccc2)cc1C(=O)c1ccc(Cl)cc1`
1

Please give the result for `Nc1scc2c1C(=O)c1ccccc1-2` too.
1

`CN(C)c1ccc(-c2cc(C(=O)c3ccccc3)c(N)s2)cc1` ?
1

Try this molecule too: `Nc1sc2c(c1C(=O)c1ccc(Cl)cc1)-c1cc(C(F)(F)F)ccc1C2`
1

Also `Nc1sc(-c2ccc(C(=O)O)cc2)c2c1C(=O)c1ccccc1-2` ?
0

And the next one, `Nc1sc(-c2cncnc2)cc1C(=O)c1ccccc1` ?
0

Next record, please: `Nc1sc(-c2ccncc2)c2c1C(=O)c1ccccc1-2`
1

Same read-out for `Nc1sc(-c2ccncc2)cc1C(=O)c1ccccc1` ?
1

Thanks! And `CN(C)c1ccc(-c2sc(N)c3c2-c2ccccc2C3=O)cc1` ?
1

Again, but for `Nc1sc2c(c1C(=O)c1ccccc1)-c1cc(C(F)(F)F)ccc1C2`
1

----------
Molecular target: Adenosine receptor A1 (Homo sapiens)
Test: Allosteric enhancement of human adenosine A1 receptor expressed in CHO FlpIn cells assessed as potentiation of N(6)-(R-phenylisopropyl)adenosine-induced ERK1/2 phosphorylation at 10 uM relative to N(6)-(R-phenylisopropyl)adenosine
Type: cell-based
Would you kindly list Activity for each of these compounds?
Give the quantity in %, number only.

If you can, please state the reported Activity value of `Nc1sc2c(c1C(=O)c1ccccc1)-c1cccc(C(F)(F)F)c1C2` .
49

Then this compound: `Nc1sc2c(c1C(=O)c1ccc(Cl)cc1)-c1cccc(C(F)(F)F)c1C2`
73

Similarly, `Nc1sccc1C(=O)c1ccccc1` ?
30

Also check `Nc1sc2c(c1C(=O)c1ccc(Cl)cc1)-c1ccccc1C2`
84

Another compound: `Nc1sc(-c2ccncc2)cc1C(=O)c1ccc(Cl)cc1`
17

Now try `COc1ccc(-c2cc(C(=O)c3ccc(Cl)cc3)c(N)s2)cc1` .
29

----------
Target: Adenosine receptor A1 (Homo sapiens)
Test: Allosteric enhancement of human adenosine A1 receptor expressed in CHO FlpIn cells assessed as potentiation of N(6)-(R-phenylisopropyl)adenosine-induced ERK1/2 phosphorylation at 10 uM relative to N(6)-(R-phenylisopropyl)adenosine
Format: cell-based
Give Activity for every item shown.

Look up Activity for this molecule: `Nc1scc2c1C(=O)c1ccc(Cl)cc1-2`
29%

Entry `COc1ccc(-c2cc(C(=O)c3ccccc3)c(N)s2)cc1` please
14%

Follow-up item: `Nc1sc(-c2ccc(C(=O)O)cc2)cc1C(=O)c1ccccc1`
27%

Here is the next molecule: `Nc1sc(-c2ccc(C(=O)O)cc2)cc1C(=O)c1ccc(Cl)cc1`
29%

Please give the result for `Nc1sc(-c2ccccc2)cc1C(=O)c1ccccc1` too.
1%

Subsequent entry: `Nc1sc(-c2cncnc2)cc1C(=O)c1ccc(Cl)cc1`
4%

----------
Target: UniProt:P30542
Assay: Allosteric enhancement of human adenosine A1 receptor expressed in CHO FlpIn cells assessed as potentiation of N(6)-(R-phenylisopropyl)adenosine-induced ERK1/2 phosphorylation at 10 uM relative to N(6)-(R-phenylisopropyl)adenosine
Format: cell-based
reported metric: Activity (%)
Lab book: enter the figure in %, no units written.

// query Activity value for entry `Nc1scc2c1C(=O)c1c(Cl)cccc1-2`
38

What do you get for `COc1ccc(-c2sc(N)c3c2-c2ccccc2C3=O)cc1` ?
18

Follow-up entry: `Nc1sccc1C(=O)c1ccc(Cl)cc1`
40

Query `Nc1sc(-c2cncnc2)c2c1C(=O)c1ccccc1-2` next
7

Same lookup for `CN(C)c1ccc(-c2cc(C(=O)c3ccc(Cl)cc3)c(N)s2)cc1` , please.
41
